target: Platelet-derived growth factor receptor beta (Homo sapiens)
Sequence (P09619 whole entry): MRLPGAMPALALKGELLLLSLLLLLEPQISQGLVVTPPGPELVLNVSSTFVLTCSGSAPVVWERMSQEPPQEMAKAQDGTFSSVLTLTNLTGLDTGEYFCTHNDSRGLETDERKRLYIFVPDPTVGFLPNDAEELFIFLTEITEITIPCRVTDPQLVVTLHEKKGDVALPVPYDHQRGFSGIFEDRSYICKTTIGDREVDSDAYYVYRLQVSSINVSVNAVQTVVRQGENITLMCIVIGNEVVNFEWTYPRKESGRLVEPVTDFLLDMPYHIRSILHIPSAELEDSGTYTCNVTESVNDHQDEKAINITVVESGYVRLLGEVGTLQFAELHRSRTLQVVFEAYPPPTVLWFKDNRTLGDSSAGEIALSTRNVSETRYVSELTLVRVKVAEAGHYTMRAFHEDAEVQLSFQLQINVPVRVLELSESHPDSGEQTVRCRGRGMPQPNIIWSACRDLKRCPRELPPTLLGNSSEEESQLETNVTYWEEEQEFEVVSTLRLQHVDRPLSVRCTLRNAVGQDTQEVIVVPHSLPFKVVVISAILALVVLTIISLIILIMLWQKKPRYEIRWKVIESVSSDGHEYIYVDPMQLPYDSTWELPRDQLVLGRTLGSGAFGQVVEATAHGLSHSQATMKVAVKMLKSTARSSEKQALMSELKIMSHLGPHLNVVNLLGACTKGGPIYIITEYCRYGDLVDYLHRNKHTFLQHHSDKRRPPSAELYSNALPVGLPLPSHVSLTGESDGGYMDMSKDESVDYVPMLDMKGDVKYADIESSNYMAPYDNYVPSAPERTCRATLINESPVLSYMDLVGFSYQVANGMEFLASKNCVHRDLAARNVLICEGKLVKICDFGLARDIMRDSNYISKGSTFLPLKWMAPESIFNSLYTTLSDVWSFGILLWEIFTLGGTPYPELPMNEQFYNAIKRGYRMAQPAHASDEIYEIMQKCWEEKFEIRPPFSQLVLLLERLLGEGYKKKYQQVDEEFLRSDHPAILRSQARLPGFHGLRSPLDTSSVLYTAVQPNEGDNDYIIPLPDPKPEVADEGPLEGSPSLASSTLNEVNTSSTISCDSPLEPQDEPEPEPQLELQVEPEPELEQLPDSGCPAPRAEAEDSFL
Activity calls are given as the source filed them.
Field 'call' accepts t = active, f = inactive

{"columns": ["compound", "measured-target", "class-assignment"],
 "data": [
  ["COc1ccc(-c2ccc3ncc4c(c3c2)n(-c2ccc(N3CCNCC3)c(C(F)(F)F)c2)c(=O)n4C)cn1 [BGT-226 FREE BASE]", "Platelet-derived growth factor receptor beta (Homo sapiens)", "f"],
  ["CCc1nc(C(N)=O)c(Nc2ccc(N3CCC(N4CCN(C)CC4)CC3)c(OC)c2)nc1NC1CCOCC1", "Platelet-derived growth factor receptor beta (Homo sapiens)", "t"]
]}

Input line: What classification did CC(C)CC(=O)Nc1[nH]nc2c1CN(C(=O)C1CCN(C)CC1)C2(C)C end up with in this test?
Output line: f

Input line: How was C[C@@H]1COC(Nc2ccc3ncnc(Nc4ccc(OCc5nccs5)c(Cl)c4)c3c2)=N1 classified in this test?
Output line: f

---

molecular target: Discoidin domain-containing receptor 2 (Homo sapiens, UniProt Q16832)
Sequence (Q16832 whole entry, the tested form may be a part): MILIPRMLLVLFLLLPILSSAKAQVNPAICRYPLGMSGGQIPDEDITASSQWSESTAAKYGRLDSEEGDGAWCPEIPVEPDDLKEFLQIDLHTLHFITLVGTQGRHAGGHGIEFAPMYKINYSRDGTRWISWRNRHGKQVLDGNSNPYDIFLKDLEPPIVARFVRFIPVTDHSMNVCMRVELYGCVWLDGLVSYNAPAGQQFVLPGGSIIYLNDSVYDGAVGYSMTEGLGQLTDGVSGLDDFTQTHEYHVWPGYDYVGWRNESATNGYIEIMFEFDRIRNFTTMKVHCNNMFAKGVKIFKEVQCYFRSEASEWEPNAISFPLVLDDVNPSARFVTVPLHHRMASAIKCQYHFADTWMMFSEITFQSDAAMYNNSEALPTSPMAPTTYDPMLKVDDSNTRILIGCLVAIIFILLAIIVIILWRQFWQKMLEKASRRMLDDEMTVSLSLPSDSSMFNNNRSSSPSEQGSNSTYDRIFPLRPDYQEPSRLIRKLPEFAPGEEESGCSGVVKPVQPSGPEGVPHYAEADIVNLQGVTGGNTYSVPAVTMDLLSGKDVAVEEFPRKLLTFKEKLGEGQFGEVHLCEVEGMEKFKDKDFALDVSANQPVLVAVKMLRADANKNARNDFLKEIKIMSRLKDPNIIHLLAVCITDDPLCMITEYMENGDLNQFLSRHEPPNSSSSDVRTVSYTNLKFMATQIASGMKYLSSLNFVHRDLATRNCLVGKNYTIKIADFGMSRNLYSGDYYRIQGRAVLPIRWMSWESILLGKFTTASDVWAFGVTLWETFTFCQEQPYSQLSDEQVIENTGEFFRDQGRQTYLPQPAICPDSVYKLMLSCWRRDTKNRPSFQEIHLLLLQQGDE
Calls of active or inactive are those of the source.
I would appreciate it if you answered using one of these outcomes: active, inactive

Known results for molecules:
{"columns": ["molecule-smiles", "measured-target", "class-assignment"],
 "data": [
  ["CCOc1ccn(-c2ccc(F)cc2)c(=O)c1C(=O)Nc1ccc(Oc2ccnc(N)c2Cl)c(F)c1", "Discoidin domain-containing receptor 2 (Homo sapiens, UniProt Q16832)", "active"],
  ["COc1ccc2c(OCc3nnc4ccc(-c5ccccc5)nn34)ccnc2c1", "Discoidin domain-containing receptor 2 (Homo sapiens, UniProt Q16832)", "inactive"],
  ["C=CCN(/C=C1/C(=O)O[C@H](COC)[C@@]2(C)C1=C(O)C(=O)C1=C2[C@H](OC(C)=O)C[C@]2(C)C(=O)CC[C@@H]12)CC=C", "Discoidin domain-containing receptor 2 (Homo sapiens, UniProt Q16832)", "inactive"]
]}

Shifting focus to the molecule that follows.
Input line: Hi, sorry to bother you, what did the test record for CC(C)(O)CC(=O)NCCn1ccc2ncnc(Nc3ccc(Oc4cccc(C(F)(F)F)c4)c(Cl)c3)c21 ?
Output line: inactive

---

target: General transcription and DNA repair factor IIH helicase subunit XPD (Homo sapiens, UniProt P18074); details: read-out: Kd apparent; k-562, colo 205, sk-n-be(2) and mv-4-11
Sequence (P18074 whole entry): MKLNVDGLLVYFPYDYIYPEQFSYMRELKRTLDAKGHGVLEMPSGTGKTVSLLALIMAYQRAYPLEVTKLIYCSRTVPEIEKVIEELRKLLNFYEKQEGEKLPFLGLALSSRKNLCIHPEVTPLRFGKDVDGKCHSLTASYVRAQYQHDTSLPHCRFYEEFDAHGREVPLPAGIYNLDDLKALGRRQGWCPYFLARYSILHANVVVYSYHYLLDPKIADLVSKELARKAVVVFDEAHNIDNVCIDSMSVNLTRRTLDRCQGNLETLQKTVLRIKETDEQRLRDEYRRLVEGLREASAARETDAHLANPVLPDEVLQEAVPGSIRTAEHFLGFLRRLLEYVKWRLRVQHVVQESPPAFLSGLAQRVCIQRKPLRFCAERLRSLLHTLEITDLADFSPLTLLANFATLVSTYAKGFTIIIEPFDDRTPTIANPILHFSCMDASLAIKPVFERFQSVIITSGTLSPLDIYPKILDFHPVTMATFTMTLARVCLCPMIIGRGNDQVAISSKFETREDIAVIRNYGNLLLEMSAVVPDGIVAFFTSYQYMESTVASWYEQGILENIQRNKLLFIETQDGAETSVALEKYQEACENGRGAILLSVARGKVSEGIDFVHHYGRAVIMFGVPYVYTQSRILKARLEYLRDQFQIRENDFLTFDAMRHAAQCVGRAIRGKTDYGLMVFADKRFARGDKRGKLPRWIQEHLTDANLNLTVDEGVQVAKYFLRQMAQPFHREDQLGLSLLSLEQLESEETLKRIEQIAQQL
Calls of active or inactive are those of the source. No stated cut-off is given here; in the data, actives have a measured Kd and inactives only a lower limit.
Hi! Could you answer with just one of these? active, inactive

Before answering, review these 5 worked examples.
{"columns": ["compound", "class-assignment"],
 "data": [
  ["CC(C)CC(=O)Nc1[nH]nc2c1CN(C(=O)C1CCN(C)CC1)C2(C)C", "active"],
  ["c1cc(OCCN2CCCCC2)cc(-c2n[nH]c3ccc(-c4nc[nH]n4)cc23)c1", "inactive"],
  ["CN1CCN(c2nc(C3=C(c4c[nH]c5ccccc45)C(=O)NC3=O)c3ccccc3n2)CC1", "inactive"],
  ["O=C(Nc1ccc(OC(F)(F)F)cc1)c1sccc1NCc1ccnc2ccccc12", "inactive"],
  ["Cc1c(Cn2c(C)nc3c(C(=O)O)cc(N4CCOCC4)cc32)cccc1C(F)(F)F", "inactive"]
]}

Input line: Per the assay record, what outcome was assigned to COc1cc2nccc(Oc3ccc(NC(=O)C4(C(=O)Nc5ccc(F)cc5)CC4)cc3)c2cc1OC [CABOZANTINIB] ?
Output line: inactive

Input line: Could you check what this test reported for C[C@]1(O)C[C@@H](c2nc(-c3ccc4ccc(-c5ccccc5)nc4c3)c3c(N)nccn32)C1 ?
Output line: inactive

Input line: I would be grateful if you could indicate the recorded call for O=C(NC[C@H](O)CO)c1ccncc1Nc1ccc(I)cc1F .
Output line: inactive

Input line: Any idea what this test logged for Cc1c(NC(=O)OC[C@@H]2COCCN2)cn2ncnc(Nc3ccc4c(cnn4Cc4cccc(F)c4)c3)c12 ?
Output line: inactive

Input line: Tell me the assay call for CNC(=O)c1ccc(Nc2ncc(C(F)(F)F)c(NCc3nccnc3N(C)S(C)(=O)=O)n2)cc1 please.
Output line: active

Input line: Test call for this compound, please: O=C(O)c1ccc2c(c1)nc(Nc1cccc(Cl)c1)c1ccncc12
Output line: inactive

Input line: Which outcome did this test record for the compound CN(C)C/C=C/C(=O)Nc1cc2c(Nc3ccc(F)c(Cl)c3)ncnc2cc1O[C@H]1CCOC1 ?
Output line: inactive
